Please provide measured pIC50 for the entries that follow.
# experimental-system: Glutaminase kidney isoform, mitochondrial (Homo sapiens)
# Sequence (O94925 whole entry, canonical isoform): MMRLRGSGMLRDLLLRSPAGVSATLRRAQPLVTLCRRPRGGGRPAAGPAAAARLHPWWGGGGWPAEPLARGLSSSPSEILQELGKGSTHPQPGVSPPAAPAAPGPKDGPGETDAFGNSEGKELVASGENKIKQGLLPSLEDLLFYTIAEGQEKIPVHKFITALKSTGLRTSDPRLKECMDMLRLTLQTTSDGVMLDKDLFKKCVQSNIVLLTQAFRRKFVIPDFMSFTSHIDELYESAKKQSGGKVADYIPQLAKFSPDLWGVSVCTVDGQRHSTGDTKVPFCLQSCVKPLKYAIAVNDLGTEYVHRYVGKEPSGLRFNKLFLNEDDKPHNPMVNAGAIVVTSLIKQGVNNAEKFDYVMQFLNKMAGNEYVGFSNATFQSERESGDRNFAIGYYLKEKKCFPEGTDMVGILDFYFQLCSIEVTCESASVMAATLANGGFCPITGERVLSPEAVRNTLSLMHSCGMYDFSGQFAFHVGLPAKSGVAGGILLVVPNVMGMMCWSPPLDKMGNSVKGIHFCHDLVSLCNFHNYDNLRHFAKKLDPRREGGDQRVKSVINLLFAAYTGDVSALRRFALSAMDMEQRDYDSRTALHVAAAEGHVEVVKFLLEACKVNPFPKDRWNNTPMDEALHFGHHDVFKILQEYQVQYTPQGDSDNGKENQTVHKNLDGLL
# experiment: Allosteric inhibition of human GLS1 using glutamine as substrate incubated for 60 mins by NADH/NADPH-based absorbance analysis
pIC50: −log10 of the molar value.

Entry COc1ccc(Cn2cc(CCC(=O)Nc3ccc(N4CC[C@H](Nc5nnc(NC(=O)Cc6ccccn6)s5)C4)nn3)nn2)cc1 has what pIC50?
< 6.00

Then O=C(CCc1cn(Cc2ccc(OC(F)(F)F)cc2)nn1)Nc1ccc(N2CC[C@H](Nc3nnc(NC(=O)Cc4ccccn4)s3)C2)nn1 ?
< 6.00

Request: Cc1cccc(C)c1Cn1cc(CCC(=O)Nc2ccc(N3CCC(Nc4nnc(N)s4)CC3)nn2)nn1
< 5.00

Queued: Nc1nnc(NC2CCN(c3ccc(NC(=O)CCc4cn(Cc5ccc(OC(F)(F)F)cc5)nn4)nn3)CC2)s1
< 5.00

Subsequent entry: COc1ccc(Cn2cc(CCC(=O)Nc3ccc(N4CCC(Nc5nnc(N)s5)CC4)nn3)nn2)cc1OC
< 5.00

# iterate: Cc1ccc(Cn2cc(CCC(=O)Nc3ccc(N4CCC(Nc5nnc(N)s5)CC4)nn3)nn2)cc1
< 5.00

Try COc1ccc(Cn2cc(CCC(=O)Nc3ccc(N4CCC(Nc5nnc(N)s5)CC4)nn3)nn2)cc1 next.
< 5.00
